Recorded values, source patent US11059833B2.

Tested on: phosphorylation of S293 BCKDH
Test: Phospho BCKDHA AlphaLISA in human skeletal myocytes
Type: cell-based
Reported conditions: 1 h, 60 minutes, geometric mean
Property name: IC50 (µM)

[a] O=C(O)c1sc2cc(Cl)sc2c1F
[b] Cc1c(C(=O)O)sc2cc(F)sc12
[c] O=C(O)c1sc2cc(F)sc2c1F
[d] Cc1c(F)sc2cc(C(=O)O)sc12
[e] O=C(O)c1sc2cc(Cl)sc2c1Br
Sort the entries above numerically by IC50, high end first. Answer format: the labels, in the requested order.
d, e, b, a, c

[P] O=C(O)c1sc2c(F)c(Cl)sc2c1F
[Q] O=C(O)c1cc2sc(Cl)c(F)c2s1
[R] O=C(O)c1cc2sc(F)c(F)c2s1
Rank descending by IC50. Answer format: the labels, in the requested order.
P, Q, R
(P: 1.9 µM, Q: 1.2 µM, R: 0.39 µM)

* * *

Study target: human BCKDK (Homo sapiens)
Construct: human BCKDK (residues 31-412 of the protein pre-processing); 6xHis (N, cleaved yes); MBP (N, cleaved yes); TEV protease site (ENLYFQG) (N, cleaved yes); made in house; host or cells: BL21(DE3) E. coli, co-expressed with GroEL-GroES
Test: In Vitro FRET (TR-FRET) BCKDK activity assay, phosphorylation of BCKDHE1α-E2 fusion substrate
Format: biochemical
Reported conditions: purified human BCKDK, 15 μM ATP; geometric mean; read-out: In Vitro FRET IC50
pIC50: −log10 of the molar value.
Property name: pIC50

Compound: O=C(O)c1cc2sc(F)c(Cl)c2s1
pIC50: 6.48
//
Compound: O=C(O)c1sc2cc(F)sc2c1C(F)F
pIC50: 7.19
//
Compound: O=C(O)c1sc2cc(F)sc2c1Br
pIC50: 6.92
//
Compound: O=C(O)c1cc2sc(Cl)c(F)c2s1
pIC50: 6.40

[I] O=C(O)c1sc2cc(F)ccc2c1Cl [BT2F, reference compound]
[II] O=C(O)c1cc2sc(F)c(F)c2s1
Select the item with the higher value of pIC50 from the options I and II listed. Answer format: the label of the selected item.
II

[P] Cc1c(C(=O)O)sc2cc(Cl)sc12
[Q] O=C(O)c1sc2c(F)c(F)sc2c1Cl
Select the item with the higher value of pIC50 from the options P and Q listed. Answer format: the label of the selected item.
Q
(Q: 6.59, P: 6.10)

[1] CCc1c(C(=O)O)sc2cc(Cl)sc12
[2] O=C(O)c1sc2c(F)c(Cl)sc2c1F
[3] O=C(O)c1sc2cc(F)sc2c1F
[4] Cc1c(C(=O)O)sc2cc(F)sc12
Rank descending by pIC50. Answer format: the labels, in the requested order.
3, 4, 2, 1
(3: 6.85, 4: 6.55, 2: 6.33, 1: 6.06)

* * *

Study target: human BCKDK (Homo sapiens, UniProt O14874)
Construct: human BCKDK (residues 31-412 of the protein pre-processing); 6xHis (N, cleaved yes); MBP (N, cleaved yes); TEV protease site (ENLYFQG) (N, cleaved yes); made in house; host or cells: BL21(DE3) E. coli, co-expressed with GroEL-GroES
Test: In Vitro FRET (TR-FRET) BCKDK activity assay, phosphorylation of BCKDHE1α-E2 fusion substrate
Type: biochemical
Property name: pIC50
Remember, pIC50 is on a log scale: it is -log10 of the molar concentration.

Assign pIC50 to the following record: O=C(O)c1sc2cc(Cl)ccc2c1Cl [BT2]
5.89

* * *

Test system: phosphorylation of S293 BCKDH
Test: Phospho BCKDHA AlphaLISA in human skeletal myocytes
Format: cell-based
Reported conditions: 1 h, 60 minutes, geometric mean
Property name: IC50 (nM)

Before answering, review these 4 worked examples.
Molecule smiles: CCc1c(C(=O)O)sc2cc(Cl)sc12
Study target: phosphorylation of S293 BCKDH
Unit symbol: nM
Reported: 3600

Molecule smiles: O=C(O)c1sc2cc(Cl)ccc2c1Cl
Study target: phosphorylation of S293 BCKDH
Unit symbol: nM
Reported: 4500

Molecule smiles: O=C(O)c1cc2sc(F)c(Cl)c2s1
Study target: phosphorylation of S293 BCKDH
Unit symbol: nM
Reported: 3400

Molecule smiles: O=C(O)c1sc2cc(F)sc2c1C(F)F
Study target: phosphorylation of S293 BCKDH
Unit symbol: nM
Reported: 1800

[P] O=C(O)c1sc2c(F)c(F)sc2c1Cl
[Q] O=C(O)c1sc2cc(F)sc2c1Cl
I'm curious whether P or Q has the smaller IC50 number. Which is it? Answer format: the label of the selected item.
Q
(Q: 720 nM, P: 1800 nM)

[A] O=C(O)c1sc2cc(Cl)sc2c1C(F)F
[B] O=C(O)c1sc2cc(F)sc2c1Br
I'm curious whether A or B has the smaller IC50 number. Which is it? Answer format: the label of the selected item.
B
(B: 1500 nM, A: 2200 nM)
